These entries and their values trace back to ChEMBL document CHEMBL1131746.

# experiment: Solubility in saline
# Type: physicochemical
# condition summary: read-out: S
quantity kind: solubility (µg/mL)
I only need the number, in µg/mL, no unit after it.

Study these solved cases before continuing.
Reported solubility of "CC(=O)O[C@@]12CO[C@@H]1C[C@H](O)[C@@]1(C)C(=O)[C@H](O)C3=C(C)[C@@H](OC(=O)[C@H](OC(=O)OCOC(=O)C[C@H](N)C(N)=O)[C@@H](NC(=O)OC(C)(C)C)C4CC4)C[C@@](O)([C@@H](OC(=O)c4ccccc4)[C@H]21)C3(C)C" : 5000

Reported solubility of "CC(=O)O[C@@]12CO[C@@H]1C[C@H](O)[C@@]1(C)C(=O)[C@H](O)C3=C(C)[C@@H](OC(=O)[C@H](OC(=O)OCOC(=O)C[C@@H](N)C(N)=O)[C@@H](NC(=O)OC(C)(C)C)C4CC4)C[C@@](O)([C@@H](OC(=O)c4ccccc4)[C@H]21)C3(C)C" : 50000

Reported solubility of "CCOC(=O)[C@@H](N)CC(=O)OCOC(=O)O[C@@H](C(=O)O[C@H]1C[C@@]2(O)[C@@H](OC(=O)c3ccccc3)[C@@H]3[C@]4(OC(C)=O)CO[C@@H]4C[C@H](O)[C@@]3(C)C(=O)[C@H](O)C(=C1C)C2(C)C)[C@@H](NC(=O)OC(C)(C)C)C1CC1" : 10000

Reported solubility of "CC(=O)O[C@@]12CO[C@@H]1C[C@H](O)[C@@]1(C)C(=O)[C@H](O)C3=C(C)[C@@H](OC(=O)[C@H](OC(=O)OCOC(=O)C[C@H](N)C(=O)O)[C@@H](NC(=O)OC(C)(C)C)C4CC4)C[C@@](O)([C@@H](OC(=O)c4ccccc4)[C@H]21)C3(C)C" : 1000

Shifting focus to the compound that follows.
Reported solubility of "CNC(=O)[C@@H](N)CC(=O)OCOC(=O)O[C@@H](C(=O)O[C@H]1C[C@@]2(O)[C@@H](OC(=O)c3ccccc3)[C@@H]3[C@]4(OC(C)=O)CO[C@@H]4C[C@H](O)[C@@]3(C)C(=O)[C@H](O)C(=C1C)C2(C)C)[C@@H](NC(=O)OC(C)(C)C)C1CC1" : 10000
